- system_under_test: T1, ActRIIB-Fc homodimer (UniProt Q13705 19-137)
- T1 construct: extracellular domain; also called ActRIIB homodimer
- T1 sequence (looked up): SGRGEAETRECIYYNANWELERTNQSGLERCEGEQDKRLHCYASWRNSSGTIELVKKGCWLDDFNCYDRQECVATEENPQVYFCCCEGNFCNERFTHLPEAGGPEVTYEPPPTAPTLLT
- assay_protocol: Biacore SPR
- Procedure: Ligands were injected and allowed to flow over the captured receptor protein.
measurement_label: koff (s⁻¹)

// below: answered binders
[
  {
    "binder": "activin B (ligand, UniProt P09529 293-407, looked up) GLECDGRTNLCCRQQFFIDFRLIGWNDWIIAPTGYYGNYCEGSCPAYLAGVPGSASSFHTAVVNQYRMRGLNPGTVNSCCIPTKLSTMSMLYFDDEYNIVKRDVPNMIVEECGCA",
    "koff / s⁻¹": 0.0001
  },
  {
    "binder": "BMP10 (ligand, UniProt O95393 317-424, looked up) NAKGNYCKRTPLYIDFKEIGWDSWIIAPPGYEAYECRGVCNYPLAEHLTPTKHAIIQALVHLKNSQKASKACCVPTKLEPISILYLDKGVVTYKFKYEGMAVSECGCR",
    "koff / s⁻¹": 0.00026
  }
]

[I] GDF11 (ligand, UniProt O95390 299-407, looked up, also called BMP11) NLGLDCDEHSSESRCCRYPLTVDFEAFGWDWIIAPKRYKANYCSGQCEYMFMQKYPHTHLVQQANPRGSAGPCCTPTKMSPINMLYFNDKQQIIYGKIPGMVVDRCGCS
[II] BMP9 (ligand, UniProt Q9UK05 320-429, looked up, also called GDF2) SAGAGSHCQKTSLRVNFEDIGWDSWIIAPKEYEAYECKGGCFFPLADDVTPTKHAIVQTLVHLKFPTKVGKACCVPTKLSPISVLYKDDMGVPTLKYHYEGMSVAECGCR
[III] activin A (ligand, UniProt P08476 311-426, looked up) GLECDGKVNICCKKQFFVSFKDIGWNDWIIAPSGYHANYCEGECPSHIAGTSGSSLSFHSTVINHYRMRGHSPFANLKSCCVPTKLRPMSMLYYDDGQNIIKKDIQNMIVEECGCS
[IV] GDF3 (ligand, UniProt Q9NR23 251-364, looked up) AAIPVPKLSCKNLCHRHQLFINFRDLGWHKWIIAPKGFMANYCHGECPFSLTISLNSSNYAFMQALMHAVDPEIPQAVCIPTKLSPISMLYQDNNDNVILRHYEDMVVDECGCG
Query string: Sort low-to-high on koff, please. As an answer, provide the labels arranged in the order called for.
Result string: I, III, II, IV
(I: 0.00011 s⁻¹, III: 0.00023 s⁻¹, II: 0.0011 s⁻¹, IV: 0.0022 s⁻¹)
